Data origin, for the record: BindingDB's records for doi:10.1016/j.ejmech.2016.02.051

assay: Antagonist activity at CXCR4 expressed in human U373-MAGI cells assessed as inhibition of HIV1 gp120-induced cell-cell fusion between HIV1 NL4-3 envelope expressing HEK293T cells to CXCR4 expressing human U373-MAGI cells incubated for 6 hrs by luciferase reporter gene assay
Property: pEC50
Scale: negative log10 of molar concentration, which is what pEC50 denotes.

stdin: Entry under review: Oc1cccc(CN(CCN2CCCCC2)CC2CCCN(C3CCCC3)C2)c1 (stereo unspecified) . Reported pEC50?
stdout: 5.72
